IC50 listing for selected compounds.
# Tested on: KB-V1 cells
# METHOD DESCRIPTION: MTS cytotoxicity test with KB-V1 cells (very high P-glycoprotein)
# Assay type: cell-based, human
# CONDITION SET: Homo sapiens, KB-V1; KB VI cells, mean of 2 experiments
QUANTITY NAME: IC50 (nM)

[
  {
    "COMPOUND": "CNCCCOc1cc(F)c(-c2c(Cl)nc(-c3ccccn3)nc2N[C@@H](C)C(F)(F)F)c(F)c1.Cl [Example 29a]",
    "QUANTITY NAME": "IC50",
    "BOUND OPERATOR": "=",
    "NUMERIC VALUE": 423
  },
  {
    "COMPOUND": "CN(C)CCCOc1cc(F)c(-c2c(Cl)nc(-c3ccc4ccccc4n3)nc2NCC(F)(F)F)c(F)c1 [Example 30]",
    "QUANTITY NAME": "IC50",
    "BOUND OPERATOR": "=",
    "NUMERIC VALUE": 82
  },
  {
    "COMPOUND": "COc1cccc2c1C(=O)c1c(O)c3c(c(O)c1C2=O)C[C@@](O)(C(=O)CO)C[C@@H]3O[C@H]1C[C@H](N)[C@H](O)[C@H](C)O1 [Doxorubicin, reference compound]",
    "QUANTITY NAME": "IC50",
    "BOUND OPERATOR": ">",
    "NUMERIC VALUE": 300
  }
]

Value source: patent US7524849B2
